Measured values drawn from PubChem BioAssay (NCI) for this set.

# Tested on: SK-MEL-28 melanoma
# assay_notes: NCI tumour cell line growth inhibition, 48 h
Where a SMILES comes first, the peptide text is derived from it.
reported_property: TGI

Recall the recorded TGI for COc1ccc(NS(=O)c2ccccc2OC)cc1 (centres undefined) with SK-MEL-28 melanoma and state it. > 100 µM

Recall the recorded TGI for `CCCCCCCCCCCCn1[nH]c(C)c(C(=S)SCCCCCCCC)c1=O` with SK-MEL-28 melanoma and state it. > 100 µM

Recall the recorded TGI for `COc1ccc2c(c1)cn1c3ccc(O)cc3[nH]c(=O)c21` with SK-MEL-28 melanoma and state it. 6.33 µM

Recall the recorded TGI for `O=[N+]([O-])/C=C\c1c[nH]c2ccc(OCc3ccccc3)cc12` with SK-MEL-28 melanoma and state it. 9.47 µM

Recall the recorded TGI for `Nc1ccc(Oc2ccc(C34CC5CC(C3)CC(c3ccc(Oc6ccc(N)cc6)cc3)(C5)C4)cc2)cc1` with SK-MEL-28 melanoma and state it. > 72.1 µM

Recall the recorded TGI for `COc1ccc(CCNC(=O)CCc2ccccc2CO)cc1OC` with SK-MEL-28 melanoma and state it. > 100 µM

Recall the recorded TGI for `O=C1CCCCC(=O)Nc2ccccc2N1` with SK-MEL-28 melanoma and state it. > 100 µM

Recall the recorded TGI for `CCOC(=O)C(=O)NCCCN1CCOCC1` with SK-MEL-28 melanoma and state it. > 100 µM

Recall the recorded TGI for CCC(C)C(NC(=O)C1CCCN1C(=O)C(CC(C)C)NC(=O)C(CC(C)C)NC(=O)C(N)CC(C)C)C(=O)NC(C(=O)NCC(=O)NC(CC(N)=O)C(=O)NC(CC(C)C)C(=O)NC(CC(C)C)C(=O)NC(CC(C)C)C(N)=O)C(C)C (centres undefined) (H-LLLPIVGNLLL-NH2; configuration not given here) with SK-MEL-28 melanoma and state it. > 50 µM

* * *

Exercise: state measured TGI for each of the molecules provided.
# Tested on: DMS 114 small cell lung
# assay_notes: NCI tumour cell line growth inhibition, 48 h

Would you mind telling me what TGI value was observed for COc1ccc(C(=O)C(C(=O)C(=O)Nc2nccs2)c2ccc(OC)cc2)cc1 (stereo not given) ? > 100 µM

Would you mind telling me what TGI value was observed for COc1ccc(C2c3cc4c(cc3OC(O)(CO)C2C(=O)O)OCO4)cc1 (stereo not given) (tested in a mixture with another compound) ? 61.3 µM

Would you mind telling me what TGI value was observed for COC1CC(CC2CCC(C)C(C(C)C(=O)O)O2)OC2(OC(C)(C3CCC(C)(C4OC(C5OC(O)(CO)C(C)CC5C)CC4C)O3)CC2C)C1C (stereo not given) ? 1.03 µM

Would you mind telling me what TGI value was observed for CSc1nc2c(c(O)c(C)c(=O)n2C2OCC(OC(C)=O)C(OC(C)=O)C2OC(C)=O)c(=O)n1C (stereo not given) ? > 100 µM

Would you mind telling me what TGI value was observed for `C#C[C@H](CCCC)OC(=O)N[C@H](C)c1ccccc1` ? 81 µM

Would you mind telling me what TGI value was observed for Brc1ccc2c(c1)C1C(CO2)C(c2ccccc2)=NN1c1ccccc1 (stereo not given) ? > 100 µM

Would you mind telling me what TGI value was observed for `CCCCCCCCCCCCn1[nH]c(C)c(C(=S)SCCCCCCCC)c1=O` ? > 79.4 µM

Would you mind telling me what TGI value was observed for `c1cc[c]([Sn]([S]c2cccc3cccnc23)([S]c2cccc3cccnc23)[c]2ccccc2)cc1` ? 0.374 µM

Would you mind telling me what TGI value was observed for `C/C(CC(=O)NC1=CC=C(NC(=O)C/C(C)=N\Nc2ccccc2)CC1)=N/Nc1ccccc1` ? > 100 µM

Would you mind telling me what TGI value was observed for `CC(C)(Oc1ccc2c(=O)cc(-c3ccccc3)oc2c1)C(=O)Nc1c(Cl)cccc1Cl` ? > 100 µM
